# Test system: A549 NSCLC
# ASSAY_PROTOCOL: NCI tumour cell line growth inhibition, 48 h
ASSAY_ENDPOINT: GI50

smiles_representation=N#Cc1ccc(N2Cc3ccccc3OC3=C2C(=O)c2c(O)ccc(O)c2C3=O)cc1 target_of_assay="A549 NSCLC" result="2.49 µM"
smiles_representation=Oc1c(CN2CCCC2)cc(COCc2ccc(Br)cc2)c2cccnc12 target_of_assay="A549 NSCLC" result="0.914 µM"
smiles_representation=O=C(CCCN1CCOCC1)Nc1ccc(Cn2nnc3c2C(=O)c2nnn(Cc4ccc(NC(=O)CCCN5CCOCC5)cc4)c2C3=O)cc1 target_of_assay="A549 NSCLC" result="> 100 µM"
smiles_representation=Cn1cc(C2=C(c3cccnc3)C(=O)NC2=O)c2ccccc21 target_of_assay="A549 NSCLC" result="> 25 µM"
smiles_representation=O=C(CN1CCN(c2ccc(Cl)cc2)CC1)N1CCN(c2nnc(-c3ccc(Cl)cc3)c(-c3ccc(Cl)cc3)n2)CC1 target_of_assay="A549 NSCLC" result="> 100 µM"
smiles_representation=COc1cc2nccc(Oc3ccc(NC(=O)C4(C(=O)Nc5ccc(F)cc5)CC4)cc3)c2cc1Oc1ccc(N)cn1 target_of_assay="A549 NSCLC" result="2.38 µM"
smiles_representation=COC(=O)c1ccc(NC(=O)Nc2ccc3oc(=O)c4ccccc4c3c2)cc1 target_of_assay="A549 NSCLC" result="> 100 µM"

src = PubChem BioAssay (NCI)
